Examples of compounds with documented %Inh follow.
System: PKMYT1
Settings: concentration: 1 μM, replicates: in singlicate; n = 1;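 also: KINOMEscan kinase panel screen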
Measured metric: %Inh (%)

>>> df
                                   compound  readout_value
0  NCCCC(NC(=O)c1cc(Br)c(-c2ccnc3[nH]ccc23)s1)c1ccccc1.O=C(O)C(F)(F)F.O=C(O)C(F)(F)F (centres unmarked) [GSK1287544]              0
1  c1ccc(Oc2ccc(Nc3ccnc4cc(-c5ccc(CNCCN6CCOCC6)o5)ccc34)cc2)nc1 [GW567145]              0
2  COCCOCCOc1cc2ncc3c4ccc(C#N)cc4[nH]c3c2cc1OC             28
3  CN(C)Cc1ccc(-c2ccc3c(Nc4ccc(Oc5ccccn5)cc4)ccnc3c2)o1 [GW567148]              0
4  Cn1cc(-c2ccc3c(c2)CCN3C(=O)Cc2cccc(F)c2)c2c(N)ncnc21 [GSK2603358]              0
5  Cc1ccc(C(=O)N2CC[C@@H](O)C2)cc1-n1c(C)cc(OCc2ccc(F)cc2F)c(Br)c1=O              0
6  Cl.Cl.NCC(NCc1ccc(-c2ccnc3[nH]ccc23)s1)c1ccccc1 (centres unmarked) [GSK1321565]              0
7  O=C(NC1CCN(c2ccnc(Nc3ccc(F)cc3)n2)C1)c1cc2ccccc2s1 (centres unmarked) [GSK1379716]              6

---

Tested on: EPHA7
Settings: concentration: 1 μM, replicates: in singlicate; n = 1
Threshold rule: %Inh greater than or equal to 4% is condition met; below that, condition not met.

>>> df
                                   compound              group
0  Cc1cccc(Nc2nc(N[C@H]3CCNC3)ncc2C(N)=O)c1.Cl [GSK2197149]      condition met
1  C[C@@H](Oc1cc(-n2cnc3cc(-c4ccnc(NCCS(C)(=O)=O)c4)ccc32)sc1C(N)=O)c1ccccc1Cl [GSK907232]      condition met
2  COc1cc(Nc2nccc(N3CCC(NC(=O)Nc4cccc(C(C)=O)c4)C3)n2)cc(OC)c1OC (centres unmarked) [GSK1379753]      condition met
3  O=C(Nc1cccc(-c2nn3ccccc3c2-c2ccnc(Nc3cccc(C(F)(F)F)c3)n2)c1)c1c(F)cccc1F [GSK292658]  condition not met
4        c1ccc(-c2cnc3nccnn23)cc1 [AH20685]  condition not met
5  FC(F)(F)c1ccc(/C=C/c2cncnc2Nc2ccc3[nH]c(Cc4ccccc4)nc3c2)cc1 [GW709199]  condition not met
6  COc1ccc(CNC(=O)NC2CCN(c3ccnc(Nc4ccc(F)cc4)n3)CC2)cc1 [GSK1379788]  condition not met

---

Tested on: RSK4(Kin.Dom.2-C-terminal)
Construct: gene RPS6KA6
Details: concentration: 1 μM, replicates: in singlicate; n = 1
Lab note - cut at 20% for %Inh: TRUE if strictly below, FALSE if not.

>>> df
                                   compound  group
0  COc1ccc(-c2coc3ccc(-c4nnc(SCc5ccc(OC)c(C(F)(F)F)c5)o4)cc23)cc1   TRUE
1  Cn1cc(-c2[nH]c3cc(NC(=O)[C@H](N)C4CCCCC4)cc4c3c2C=NNC4=O)cn1  FALSE
2     O=C(Nc1n[nH]c2cc(-c3ccoc3)ccc12)C1CC1   TRUE
3  COc1cc2c(cc1OCCN1CCNCC1)ncc1c3ccc(C#N)cc3[nH]c21   TRUE
4  CNC(=O)c1ccccc1Nc1nc(Nc2ccc(N3CCOCC3)cc2)ncc1Cl.Cl  FALSE
5  Cc1ccc(S(=O)(=O)Nc2ccc(Nc3nccc(Nc4cccc5[nH]ncc45)n3)cc2)cc1   TRUE
6  CN(c1ccc(NC(=O)Nc2cc(C(F)(F)F)ccc2F)cc1)c1ccnc(Nc2ccc(S(N)(=O)=O)cc2)n1   TRUE
7  O=C(NC1CCN(c2ccnc(Nc3ccc(F)cc3)n2)C1)c1cc2ccccc2s1 (centres unmarked)  FALSE

Taken from paper PMC5540273.
